Where these numbers come from: patent US12653809B2

biological target: Cbl-b (truncated variant, UniProt number Q13191) (Homo sapiens, UniProt Q13191); construct: made in house; assay: Cbl-b activity assay (TR-FRET, interaction of Cbl-b with UbcH5B-Ub); assay type: biochemical; conditions: high conditions: 100 mM NaCl, 60 nM Src kinase; 12 nM Cbl-b; read-out: Cbl-b activity IC50
Sequence (Q13191 36-427): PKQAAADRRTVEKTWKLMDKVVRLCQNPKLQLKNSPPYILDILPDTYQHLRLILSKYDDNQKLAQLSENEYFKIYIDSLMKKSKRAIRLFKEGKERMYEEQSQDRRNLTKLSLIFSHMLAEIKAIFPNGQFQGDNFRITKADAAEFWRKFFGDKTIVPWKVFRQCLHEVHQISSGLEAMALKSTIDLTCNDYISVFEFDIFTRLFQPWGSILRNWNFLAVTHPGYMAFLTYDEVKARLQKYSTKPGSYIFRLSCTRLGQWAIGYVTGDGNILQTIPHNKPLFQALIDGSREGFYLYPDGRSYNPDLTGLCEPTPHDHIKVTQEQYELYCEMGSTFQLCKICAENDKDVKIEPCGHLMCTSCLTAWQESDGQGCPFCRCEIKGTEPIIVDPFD
assay metric: IC50

{"columns": ["compound", "assay target", "IC50"],
 "data": [
  ["Cc1cccc(-c2cc(-c3cccc([C@H](C)Sc4nncn4C)c3)on2)c1", "Cbl-b (truncated variant, UniProt number Q13191) (Homo sapiens, UniProt Q13191)", "1 to 5 µM"],
  ["C[C@H](Cc1nncn1C)c1cccc(NC(=O)N2C[C@H](CO)[C@@H](C)C2)c1 (relative stereo)", "Cbl-b (truncated variant, UniProt number Q13191) (Homo sapiens, UniProt Q13191)", "1 to 5 µM"],
  ["C[C@H](Cc1nncn1C)c1cccc(-c2cc(-c3ccccn3)n[nH]2)c1", "Cbl-b (truncated variant, UniProt number Q13191) (Homo sapiens, UniProt Q13191)", "0.1 to 1 µM"],
  ["C[C@H](Sc1nncn1C)c1cccc(-c2cc(-c3ccc(C#N)cc3)no2)c1", "Cbl-b (truncated variant, UniProt number Q13191) (Homo sapiens, UniProt Q13191)", "1 to 5 µM"],
  ["COc1cc(N2CCOCC2)ccc1NC(=O)Nc1cccc([C@H](C)Sc2nncn2C)c1", "Cbl-b (truncated variant, UniProt number Q13191) (Homo sapiens, UniProt Q13191)", "≥ 5 µM"],
  ["C[C@H](Sc1nncn1C)c1cccc(NC(=O)N2CC(S(C)(=O)=O)C2)c1", "Cbl-b (truncated variant, UniProt number Q13191) (Homo sapiens, UniProt Q13191)", "≥ 5 µM"],
  ["C[C@H](Sc1nncn1C)c1cccc(NC(=O)N2Cc3nccnc3C2)c1", "Cbl-b (truncated variant, UniProt number Q13191) (Homo sapiens, UniProt Q13191)", "≥ 5 µM"]
]}

Let us examine a further case.
IC50 recorded for this compound, Cc1cccc(NC(=O)c2cccc(C3(Cc4nncn4C)COC3)c2)n1 , is ≥ 5 µM
